Provenance of the data: patent US20250074997A1

- Tgt: T1, UPAR-His recombinant protein (UniProt Q03405 23-303)
- T1 construct: range 23-303; Expressed in 293 cells, purified on Ni-NTA; Biotinylated in the uPA ELISA; also called UPAR-His antigen; biotinUPAR-His; not shown: C-terminal His tag
- Measurement description: phage ELISA, plate coated with UPAR-His, HRP-anti-M13
Measured metric: S/N ratio

[[record]]
binder = "phage mono clone 1-F1 (VHH, the phage coat fusion part is not described) VHH: EVQLAESGGGLVQPGGSLRLSCAASGFTFSSYTMSWVRQAPGKGLEWVSAIDSDGGVTSYADSVKGRFTISRDNAKNTLYLQMNSLKPEDTAVYYCANGGYCSGYGCYPRLLSQGTLVTVSS"
meas_value = "> 5"


# ---- query binder ----
Query: Quick one: S/N ratio for phage mono clone 3-E04 (VHH, the phage coat fusion part is not described) VHH: QLRLVESGGGLVQPGGSLRLSCAASGFTLDYYDIGWFRQAPGKEREGVSCIGRISGDTDYAESVKGRFTASRDNAKNTVYLQMNSLKPEDTAVYYCAAERRFFGGGCRRSVDNMDSWGKGTLVTVSS ?
Result: > 5
